The values you see were collected from ChEMBL document CHEMBL1201862.

I'd be grateful if you could share measured AC50 for these entries.
Target: Paired box protein Pax-8 (Homo sapiens, UniProt Q06710)
Sequence (Q06710 whole entry): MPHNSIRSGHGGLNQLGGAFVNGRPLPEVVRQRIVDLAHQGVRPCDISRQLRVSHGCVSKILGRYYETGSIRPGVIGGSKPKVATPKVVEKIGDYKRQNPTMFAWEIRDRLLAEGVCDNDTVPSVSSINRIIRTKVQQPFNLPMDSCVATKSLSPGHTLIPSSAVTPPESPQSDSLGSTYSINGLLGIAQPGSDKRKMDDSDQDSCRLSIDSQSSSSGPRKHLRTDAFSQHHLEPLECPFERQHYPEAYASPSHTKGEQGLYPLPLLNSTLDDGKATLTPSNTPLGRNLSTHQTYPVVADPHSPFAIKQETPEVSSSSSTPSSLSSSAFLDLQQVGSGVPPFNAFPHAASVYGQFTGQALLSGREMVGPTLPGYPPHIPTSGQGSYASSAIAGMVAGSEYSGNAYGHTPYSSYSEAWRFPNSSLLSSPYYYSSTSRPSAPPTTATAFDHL
Assay: inhibitors of PAX8-driven TPO luciferase reporter, dose response, RMG-I cells, cherry-pick (AID 687027);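 note: luciferase reporter driven by Pax8 target thyroperoxidase promoter measured by SteadyGlo luminescence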
Type: functional, cell-based
Calls of active or inactive are those of the source. The rule behind the calls is not given here.

Inquiry: State its AC50 on Paired box protein Pax-8 (Homo sapiens, UniProt Q06710): COc1ccc(-c2nc3c(c(SCC(=O)Nc4cccc(O)c4)n2)Cc2c(CO)cnc(C)c2O3)cc1
Reply text: 67.6 µM (active)

Inquiry: State its AC50 on Paired box protein Pax-8 (Homo sapiens, UniProt Q06710): CN(C[C@H]1N[C@@H](CO)[C@@H]1c1ccc(C2=CCCC2)cc1)C(=O)c1ccc(F)cc1
Reply text: 0.895 µM (active)

Inquiry: State its AC50 on Paired box protein Pax-8 (Homo sapiens, UniProt Q06710): O=C(C[C@@H]1C[C@H]2c3cc(NC(=O)Nc4ccc(C(F)(F)F)cc4)ccc3O[C@H]2[C@H](CO)O1)NCCc1ccccc1
Reply text: 15.9 µM (active)

Inquiry: State its AC50 on Paired box protein Pax-8 (Homo sapiens, UniProt Q06710): C[C@]12CC[C@H](O)C[C@H]1CC[C@@H]1[C@@H]2C[C@@H](O)[C@]2(C)[C@@H](C3=CC(=O)OC3)CC[C@]12O [DIGOXIGENIN]
Reply text: 2.35 µM (active)

Inquiry: State its AC50 on Paired box protein Pax-8 (Homo sapiens, UniProt Q06710): COc1ccc(S(=O)(=O)Nc2ccc3c(c2)C(=O)N([C@H](C)CO)C[C@H](C)[C@H](CN(C)Cc2ccc(C(F)(F)F)cc2)OCCCC[C@H](C)O3)cc1
Reply text: 9.51 µM (active)

Inquiry: State its AC50 on Paired box protein Pax-8 (Homo sapiens, UniProt Q06710): CN(C)N=Nc1[nH]cnc1C(N)=O
Reply text: 5.34 µM (active)

Inquiry: State its AC50 on Paired box protein Pax-8 (Homo sapiens, UniProt Q06710): COc1ccccc1NC(=O)N1CCCCN2[C@H](C1)[C@@H](c1ccc(-c3cccc(C#N)c3)cc1)[C@@H]2CO
Reply text: 11.6 µM (active)

Inquiry: State its AC50 on Paired box protein Pax-8 (Homo sapiens, UniProt Q06710): CCOC(=O)c1ccc(NC(=O)Cn2ncc(Cl)c(Cl)c2=O)cc1
Reply text: 6.64 µM (active)
